System: A-375
protocol description: Cytotoxicity against human A375 cells
Assay type: cell-based
pIC50: −log10 of the molar value.
observed property: pIC50

The observed pIC50 for C/C=C(/C)C(=O)O[C@]1(C)C(=O)O[C@H]2C/C(C)=C/CC/C(C)=C/[C@H](OC(=O)[C@@]3(C)O[C@H]3C)[C@@H]21 when tested with A-375 stands at < 4.00

###

Test system: HaCaT
protocol description: Cytotoxicity against human HaCaT cells
Type: cell-based
observed property: IC50

Per the record, C/C=C(/C)C(=O)O[C@]1(C)C(=O)O[C@H]2C/C(C)=C/CC/C(C)=C/[C@H](OC(=O)[C@@]3(C)O[C@H]3C)[C@@H]21 has IC50 of > 100 µM
